This collection of values is drawn from PubChem BioAssay AID2391.

assay_notes: inhibition of RSV-induced cytopathic effect – HEp-2 cells, primary 10 µM value included (AID 2391)
cond: at 10 µM, stronger effect = higher value
In all, about 310,000 compounds went through this assay and about 410 (0.13%) were called active. Roughly 2% stayed inconclusive and do not appear here. Only a sample is shown. Measured potencies and affinities stand elsewhere.
Listed here are molecules together with their documented CPE inhibition.

| molecule | CPE inhibition |
| --- | --- |
| CCCCc1ncc(CN2CCC(n3nccc3NC(=O)c3ccccc3Cl)CC2)[nH]1 | 0.19% (inactive) |
| COc1ccc(Cn2cnc3c4cc(F)ccc4n(C)c3c2=O)cc1 | 1.16% (inactive) |
| O=c1[nH]c(C2CCN(S(=O)(=O)c3ccccc3F)CC2)nc2c1nnn2Cc1ccc(F)cc1 | 39% (inactive) |
| CCOc1ncccc1C(=O)N(C)CC(=O)Nc1ccccc1SC | 1.11% (inactive) |
| O=c1[nH]c(C2CCN(S(=O)(=O)c3ccccc3)CC2)nc2c1nnn2Cc1ccccc1 | 19.1% (inactive) |
| O=c1[nH]c(C2CCN(S(=O)(=O)c3ccc4c(c3)OCCO4)CC2)nc2c1nnn2Cc1cccc(F)c1 | 67.8% (inactive) |
| COc1cc(C2NC(C(=O)O)Cc3c2[nH]c2ccccc32)cc(OC)c1OC (centres undefined) | 5.99% (inactive) |
| Cc1ccc(Cn2nnc3c(=O)[nH]c(C4CCN(S(=O)(=O)c5ccc(F)cc5)CC4)nc32)cc1 | 13.9% (inactive) |
| O=c1[nH]c(C2CCN(S(=O)(=O)c3ccc4c(c3)OCCO4)CC2)nc2c1nnn2Cc1ccc(F)cc1 | 63.7% (inactive) |

====

assay_notes: inhibition of RSV-induced cytopathic effect – HEp-2 cells, primary 10 µM value included (AID 2391)
cond: at 10 µM, stronger effect = higher value
The campaign covered roughly 310,000 compounds. About 410 (0.13%) were called active. Another 2% or so got no clear call; they are omitted. Not all results are given here. Measured potencies and affinities stand elsewhere.

| molecule | CPE inhibition (%) |
| --- | --- |
| CCN1C(=O)/C(=C2/C(=O)N3c4c(cc(OC(C)=O)cc42)C(C)=CC3(C)C)SC1=S | 7.27 |
| CC(=O)C1=C(O)C(=O)N(c2nccs2)C1c1ccc(F)cc1 (stereo not drawn) | 1.72 |
| COc1ccc(S(=O)(=O)N2CCCCC2)cc1C(=O)N1CCCCCC1 | 1.11 |
| CCOC(=O)c1c(C)nc2c(c1C)/C(=N/O)CC(C)(C)C2 | 5.56 |
| CN1CCN(/C(=N\O)c2nonc2N)CC1 | -0.46 |
| COc1ccc(CNC(=O)CCCn2nc(C)n3ccnc3c2=O)cc1 | 1 |
| CCOc1ccc(OCCNC(=O)c2oc3ccccc3c2COC)cc1 | 2.63 |
| COc1ccc(C(=O)/C=C/NCc2ccc(F)cc2)cc1OC | 4.99 |
| COc1ccc(C(=O)c2coc3ccc(OC(C)=O)cc23)cc1 | 4.53 |
| COc1cc2c3c(c1)/C(=C1/SC(=S)NC1=O)C(=O)N3C(C)(C)C=C2C | 17.4 |
| COc1ccc2occ(C(C)=O)c2c1 | 0.49 |
| Cn1c(O)c(/C=C2\C=Nc3ccccc32)sc1=Nc1ccc(C(=O)O)cc1 | 1.42 |
| CN(C)S(=O)(=O)c1cc(NC(=O)CN2CCN(c3ccc(O)cc3)CC2)ccc1Cl | 0.75 |
| CC(C)CNC(=O)c1cc([N+](=O)[O-])ccc1N1CCCCC1 | 1.62 |
| CC1CN(C(C)C)C(C)CC1OC(=O)c1ccccc1 (stereo not drawn) | -0.34 |
| CCOC(=O)C1(Cc2cccc(OC)c2)CCN(CCO)CC1 | -1.67 |
| C=CCc1cccc(/C=N/NC(=O)c2ccccc2OC)c1O | 4.29 |
| Clc1ccc(CSc2ccc(-c3cccnc3)nn2)cc1 | 20.4 |
| O=C(c1ccccc1Sc1c(Cl)cccc1[N+](=O)[O-])N1CCOCC1 | 4.6 |
| COc1cc2c(cc1OC)CN(C(=O)c1cccc(S(=O)(=O)N(C)C)c1)CC2 | 1.79 |
| Cc1ccc(NC(=O)CC(N)=S)cc1 | 0.37 |
| COC(=O)Cc1c(C)c2c(O)cc(C)cc2oc1=O | 6.65 |
| O=C(c1cccc(S(=O)(=O)N2CCc3ccccc32)c1)N1CCc2ccccc2C1 | 7.22 |
